target: b-Raf(V600E) (Homo sapiens, UniProt P15056, V600E); construct: made in house; assay: Raf/Mek Amplified Luminescence Proximity Homogeneous Assay (Alpha Screen), b-Raf(V600E); assay type: biochemical; conditions: mutant b-Raf(V600E), read-out: mut-b-RAF (IC50 in uM)
Sequence (P15056 whole entry V600E): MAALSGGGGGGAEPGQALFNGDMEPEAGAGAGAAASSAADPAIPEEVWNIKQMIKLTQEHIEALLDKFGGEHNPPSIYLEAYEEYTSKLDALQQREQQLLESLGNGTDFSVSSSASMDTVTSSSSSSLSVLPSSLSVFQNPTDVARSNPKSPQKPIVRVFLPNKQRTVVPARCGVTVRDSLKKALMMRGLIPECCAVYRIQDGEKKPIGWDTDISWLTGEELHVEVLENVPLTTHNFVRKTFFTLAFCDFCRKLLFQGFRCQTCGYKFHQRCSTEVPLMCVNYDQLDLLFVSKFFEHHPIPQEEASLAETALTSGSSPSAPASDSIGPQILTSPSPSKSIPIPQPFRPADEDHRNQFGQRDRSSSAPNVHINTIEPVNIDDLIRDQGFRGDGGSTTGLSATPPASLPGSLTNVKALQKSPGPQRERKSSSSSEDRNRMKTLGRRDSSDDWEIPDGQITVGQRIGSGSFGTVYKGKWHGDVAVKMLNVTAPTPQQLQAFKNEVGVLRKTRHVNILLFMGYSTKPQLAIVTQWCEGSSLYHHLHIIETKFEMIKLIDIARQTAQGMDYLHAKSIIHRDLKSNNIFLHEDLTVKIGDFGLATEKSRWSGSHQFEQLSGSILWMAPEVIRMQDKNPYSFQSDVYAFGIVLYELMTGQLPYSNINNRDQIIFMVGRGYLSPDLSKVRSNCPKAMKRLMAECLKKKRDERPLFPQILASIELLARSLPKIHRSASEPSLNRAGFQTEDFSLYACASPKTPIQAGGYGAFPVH
Listed compounds paired with reported log10 IC50
readoutLabel: log10 IC50 (log10 of the value in µM)

smi: Nc1n[nH]c2cc(-c3[nH]c(-c4ccccc4)nc3-c3ccncc3)cc(F)c12
readoutNumber: -0.28

smi: COc1cc(-c2[nH]c(-c3cccc(C#N)c3)nc2-c2ccncc2)cnc1N
readoutNumber: -2.96

smi: Nc1cc(-c2[nH]c(-c3ccccc3)nc2-c2ccncc2)ccn1
readoutNumber: -0.38

smi: COCC(=O)N[C@@H](C)CNc1nccc(-c2oc(-c3ccc(F)cc3)nc2-c2cnc(N)c(OC)n2)n1
readoutNumber: -2.70

smi: COc1cc(-c2[nH]c(C(C)(C)C)nc2-c2ccnc(N[C@@H](C)CNC(=O)[C@H](C)OC)n2)cnc1N
readoutNumber: -1.80

smi: COc1cc(-c2nc(-c3ccc(F)cc3)[nH]c2-c2ccnc(F)c2)cnc1N
readoutNumber: -1.53

smi: COc1cc(-c2oc(-c3ccccc3)nc2-c2ccncc2)cnc1N
readoutNumber: -1.86

smi: COc1cc(-c2nc(C(C)(C)C)[nH]c2-c2ccnc(N[C@@H]3CCN(C(C)=O)C3)n2)cnc1N
readoutNumber: -2.49

smi: COc1nc(-c2nc(C(C)(C)C)[nH]c2-c2ccnc(NC[C@H](C)NC(=O)OC(C)C)n2)c(C)nc1N
readoutNumber: -2.92

smi: COc1cc(-c2[nH]c(-c3ccc(F)cc3)nc2C2CCOCC2)cnc1N
readoutNumber: -0.39

smi: COc1cc(-c2[nH]c(-c3ccccc3)nc2C2=CCOCC2)cnc1N
readoutNumber: -1.42

smi: COc1cc(-c2[nH]c(-c3ccc(Cl)cc3F)nc2-c2ccncc2)cnc1N
readoutNumber: -2.64

smi: COc1cc(-c2nc(C3CCCCC3)[nH]c2-c2ccncc2)cnc1N
readoutNumber: -2.70

smi: c1ccc(-c2nc(-c3ccncc3)c(-c3ccc4cn[nH]c4c3)[nH]2)cc1
readoutNumber: -1.77

smi: COCC(=O)N[C@@H](C)CNc1nccc(-c2[nH]c(C3CC3)nc2-c2cnc(N)c(OC)n2)n1
readoutNumber: -4.00

smi: CC[C@@H](C)Nc1nccc(-c2nc(-c3ccc(F)cc3)[nH]c2-c2cnc(N)c(OC)c2)n1
readoutNumber: -2.00

----------
target: b-Raf(V600E) (Homo sapiens, UniProt P15056, V600E); construct: made in house; assay: Raf/Mek Amplified Luminescence Proximity Homogeneous Assay (Alpha Screen), b-Raf(V600E); assay type: biochemical; settings: mutant b-Raf(V600E), read-out: mut-b-RAF (IC50 in uM)
# note: exactly 0.001 µM is not below, so it is 0.0; use 1.0 for IC50 strictly under it

smi: COCC(=O)N[C@@H](C)CNc1nccc(-c2oc(-c3ccc(C(F)(F)F)cc3)nc2-c2cnc(N)c(OC)c2)n1
label: 0.0
--
smi: COc1cc(-c2nc(-c3ccc(OC(F)(F)F)cc3)[nH]c2-c2ccncc2)cnc1N
label: 0.0
--
smi: COc1nc(-c2nc(C(C)(C)C)[nH]c2-c2ccnc(NC[C@H](C)NC(=O)OC(C)C)n2)cnc1N
label: 1.0
--
smi: CC(=O)c1cc(-c2[nH]c(-c3ccc(F)cc3)nc2-c2ccncc2)cnc1N
label: 0.0
--
smi: COc1cc(-c2[nH]c(-c3ccc(F)c(F)c3)nc2-c2ccncc2)cnc1N
label: 0.0
--
smi: COCC(=O)N[C@@H](C)CNc1nccc(-c2[nH]c(C(C)(C)C)nc2-c2cnc(N)c(OC)n2)n1
label: 1.0
--
smi: c1ccc(-c2nc(-c3ccncc3)c(-c3cnc4[nH]ccc4c3)[nH]2)cc1
label: 0.0
--
smi: COc1cc(-c2nc(C(C)(C)C)[nH]c2-c2ccnc(NCc3ccc(C(F)(F)F)cc3)n2)cnc1N
label: 1.0
--
smi: COc1cc(-c2ccc(S(=O)(=O)N3CCC[C@@H](Nc4nccc(-c5nc(-c6ccccc6)[nH]c5-c5cnc(N)c(OC)c5)n4)C3)cc2)cnc1N
label: 1.0
--
smi: COc1cc(-c2[nH]c(-c3ccccc3)nc2-c2ccnc(NCCNS(C)(=O)=O)n2)cnc1N
label: 1.0
--
smi: c1ccc(-c2nc(-c3ccncc3)c(-c3ccc4cc[nH]c4c3)[nH]2)cc1
label: 0.0
--
smi: COc1cc(-c2[nH]c(-c3ccc(F)cc3)nc2-c2cn[nH]c2)cnc1N
label: 0.0
--
smi: COc1cc(-c2[nH]c(-c3ccc(F)c(C)c3)nc2-c2ccncc2)cnc1N
label: 1.0
--
smi: Nc1n[nH]c2cc(-c3[nH]c(-c4ccccc4)nc3-c3ccncc3)ccc12
label: 0.0
--
smi: COc1cc(-c2[nH]c(-c3cccc(-c4ccncc4)c3)nc2-c2ccncc2)cnc1N
label: 1.0
